# Tested on: HCC-2998 colon
# experiment: NCI tumour cell line growth inhibition, 48 h
measured-parameter: TGI

Study these solved cases before continuing.
TGI reading for CC1CC(=O)Nc2ccccc2N1C(=O)CN1CCC(CCCCN(C)C)CC1 (stereo not given) : > 100 µM

Entry `Clc1ccc2c(c1)N(c1ncnc3ccc(-c4cnc5[nH]ccc5c4)cc13)CC2` — recorded TGI = 68.9 µM

Lookup result for `CN(NC(=O)c1cccs1)C1=NCCCCN1` ; measured TGI: > 100 µM

Lab book: TGI of `N#Cc1ccccc1NC(=O)C(=O)c1c(O)c2ccccc2oc1=O` noted as > 100 µM

Parameters: items (list). Returns: TGI for each item.
1. CC(=O)Nc1ccc2[nH]c(-c3cccc(Cl)c3)cc(=O)c2c1
2. COc1ccc2cc(C(=O)O)ccc2c1OC
3. COc1cc2nc(SCC(=O)Nc3cc(OC)c(OC)c(OC)c3)n(Cc3ccccc3)c(=O)c2cc1OC
4. CN(C)CCNC(=O)C(C)(C)Oc1ccc(C(=O)c2ccc(Cl)cc2)cc1Cl
5. C=C(C)[C@H]1C=C[C@@H](OC(=O)c2cccnc2)[C@@]23CO[C@@](C)([C@H](OC(=O)c4cccnc4)[C@@]4(OC(C)=O)C[C@H](C)[C@H](OCCC)[C@@H]4[C@H]2OC(C)=O)[C@H]13
6. O=c1ccn(C2OC(CO)C(O)C2[Se]c2ccccc2)c(=O)[nH]1 (stereo not given)
7. COc1ccc(C(SCC(N)C(=O)O)(c2ccccc2)c2ccccc2)cc1 (stereo not given)
8. CC1(C)CCC2=C(O1)c1ccccc1C(=O)C2=O

Data returned:
["63.5 µM", "> 100 µM", "> 100 µM", "16.7 µM", "> 15 µM", "> 100 µM", "12.2 µM", "3.25 µM"]

Could I get TGI for every one of these entries?
1. CC(=O)O[C@H]1/C(=C/c2ccncc2)C[C@H]2[C@@H]3CC=C4C[C@@H](N5CCCC5)CC[C@]4(C)[C@H]3CC[C@]12C
2. Cc1ccc(S(=O)(=O)N2CCSCCN(S(=O)(=O)c3ccc(C)cc3)CCN(S(=O)(=O)c3ccc(C)cc3)CC2)cc1

Data returned:
1. 26 µM
2. > 100 µM

Please supply TGI for each of the following items, keeping them in order.
1. CN(C)P(=O)(Oc1ccc(CC(NC(=O)OCc2ccccc2)C(=O)OCc2ccccc2)cc1)N(C)C (stereo not given)
2. COc1cc(OC)c(/C=C\c2ccnc3ccccc23)c(OC)c1
3. c1cc2[nH]ncc2cc1-c1nc2ccc3[nH]ncc3c2c2c1CCCC2
4. Cc1ncc2c(=O)c3c(oc2n1)c1ccccc1n3Cc1ccccc1
5. CC1=C/C(=N\O)C(C(O)(C(F)(F)F)C(F)(F)F)C(C)(C)C1 (stereo not given)
6. CC(/C(=N\Nc1ccccc1)c1ccc(O)cc1)C1C(=O)Oc2ccccc21 (stereo not given)
7. O=[N+]([O-])c1ccccc1N/N=C\c1c[nH]c2ccccc12

Data returned:
1. 37.8 µM
2. 23.9 µM
3. 9.79 µM
4. > 100 µM
5. > 10 µM
6. > 100 µM
7. > 100 µM

List the reported TGI of each molecule below.
1. NNC(=O)CNC(=O)c1ccc(Cl)cc1Cl
2. Cc1ccc(N=Nc2ccc(O)c(CN(C)C)c2)cc1
3. CC1C[C@H](C)CC(C(O)CC2CC(=O)N(Cc3ccccc3)C(=O)C2)C1O (stereo not given in full)
4. NC(=O)c1ccc(NN=O)nc1
5. CC(=O)Nc1cc(N(CCOS(C)(=O)=O)CCOS(C)(=O)=O)ccc1N=O
6. CCCCCCCCN(CCCCCCCC)CCCCCCNc1cc(OC)cc2cccnc12
7. OC1CCOc2ccccc21 (stereo not given)

Data returned:
> 100 µM
29.5 µM
> 100 µM
> 100 µM
> 100 µM
26.2 µM
> 100 µM
